experiment: stability in methanol/water (HPLC); format: physicochemical; conditions: time 14 days
assayEndpoint: % ddC 4 (%)

INSERT INTO assay_data (molecule, assayendpoint, unitabbreviation, numericvalue) VALUES
  ('CCCC(=O)Nc1ccn([C@H]2CC[C@@H](COC(=O)CCC)O2)c(=O)n1 [Verbindung 1c]', '% ddC 4', '%', 25);

A = CCC(=O)Nc1ccn([C@H]2CC[C@@H](CO)O2)c(=O)n1 [Verbindung 2a, N-Propanoyl 2′,3′-dideoxycytidin]
B = CC(C)C(=O)Nc1ccn([C@H]2CC[C@@H](COC(=O)C(C)C)O2)c(=O)n1 [Verbindung 1b]
Parameter check: reported % ddC 4 is higher for which label, A or B ? Bench note: the answer is the label of the chosen record.
A
(A: 28%, B: 2%)

---

assay: apparent partition coefficient n-octanol / phosphate buffer pH 7,4 (method of Hansch et al.); assay type: physicochemical; conditions: n-octanol / aqueous phosphate buffer pH 7,4
assayEndpoint: Scheinbarer Verteilungskoeffizient zwischen n-Octanol und Phosphatpuffer pH 7,4

Worked examples, 5 compounds total:
INSERT INTO measurements (compound, numericvalue) VALUES
  ('CCC(=O)Nc1ccn([C@H]2CC[C@@H](COC(=O)CC)O2)c(=O)n1 [Verbindung 1a]', 6.8),
  ('CC(C)C(=O)Nc1ccn([C@H]2CC[C@@H](COC(=O)C(C)C)O2)c(=O)n1 [Verbindung 1b]', 58.0),
  ('CC(=O)Nc1ccn([C@H]2C=C[C@@H](COC(C)=O)O2)c(=O)n1', 0.39),
  ('Nc1ccn([C@H]2C=C[C@@H](CO)O2)c(=O)n1 [2′,3′-Didehydro-2′,3′-dideoxycytidin, reference compound]', 0.03),
  ('O=C(Nc1ccn([C@H]2CC[C@@H](CO)O2)c(=O)n1)c1ccccc1 [N-Benzoyl 2′,3′-dideoxycytidin]', 15.0);

I = CCCC(=O)Nc1ccn([C@H]2CC[C@@H](COC(=O)CCC)O2)c(=O)n1 [Verbindung 1c]
II = CC(=O)OC[C@@H]1CC[C@H](n2ccc(N)nc2=O)O1 [2′,3′-Dideoxycytidin 5′-acetat]
Parameter check: reported Scheinbarer Verteilungskoeffizient zwischen n-Octanol und Phosphatpuffer pH 7,4 is higher for which label, I or II ? Bench note: the answer is the label of the chosen record.
I
